Tested on: large crabgrass (Digitaria sanguinalis, DIGSA)
Assay: Pre-emerge test, greenhouse herbicide activity screening
Assay type: in vivo
Conditions: 250 g ai/ha; phytotoxicity rating 0-100, 14 days after application
The molecules listed here are annotated with their Pre-emerge Herbicidal Activity DIGSA.

moleculeSmiles | Pre-emerge Herbicidal Activity DIGSA
Cn1c(C(F)(F)F)cc(=O)n(-c2ccc(Cl)cc2NC(=O)Oc2ccccc2)c1=O | 30
COc1c(Cl)cc(F)c(-n2c(=O)cc(C(F)(F)F)n(C)c2=O)c1NC(=O)Oc1c(C)cc(C)cc1C | 10
COc1c(Cl)cc(F)c(-n2c(=O)cc(C(F)(F)F)n(C)c2=O)c1NC(=O)Oc1ccccc1C(C)(C)C | 0
Nn1c(C(F)(F)F)cc(=O)n(-c2c(F)cc(Cl)c(O)c2NC(=O)c2ccc3ccccc3c2)c1=O | 0
Cc1ccc(-n2c(=O)cc(C(F)(F)F)n(C)c2=O)c(NC(=O)c2ccc3ccccc3c2)c1 | 95

---

The compounds listed here are annotated with their Pre-emerge Herbicidal Activity RICE.
System: upland rice (Oryza sp., var. Tebonnet, RICE)
Assay: Pre-emerge test, crop safety
Type: in vivo
Settings: crop damage, pre-emerge, rate 250 g ai/ha, phytotoxicity rating 0-100 at 14 days after application
Protocol: A standard greenhouse herbicide activity screening system was used to evaluate the herbicidal efficacy and crop safety of these test compounds. […] At 14 days after application of the test materials, phytotoxicity ratings were recorded. […]
valueType: Pre-emerge Herbicidal Activity RICE

moleculeSmiles | readoutNumber
COc1c(Cl)cc(F)c(-n2c(=O)n3n(c2=O)CCCC3)c1NC(C)=O | 60
Cc1c(Cl)cc(F)c(-n2c(=O)cc(C(F)(F)F)n(C)c2=O)c1NC(=O)OCc1cccc([N+](=O)[O-])c1 | 40
COc1c(Cl)cc(F)c(-n2c(=O)n3n(c2=O)CCCC3)c1N | 10
C#CCOc1c(Cl)cc(F)c(N2C(=O)C3=C(CCCC3)C2=O)c1N | 0
Cc1nn(-c2c(F)cc(Cl)cc2NC(=O)c2ccc(F)cc2F)c(=O)n1C(F)F | 0
Cc1c(Cl)cc(F)c(-n2c(=O)cc(C(F)(F)F)n(C)c2=O)c1NC(=O)OCCc1ccccc1 | 70
COc1c(Cl)cc(F)c(-n2nc(C)n(C(F)F)c2=O)c1NC(=O)c1ccc(F)cc1F | 100
COc1c(Cl)cc(F)c(-n2nnn(CCCF)c2=O)c1NC(=O)c1ccc2ccccc2c1 | 40
COc1ccccc1COC(=O)Nc1c(C)c(Cl)cc(F)c1-n1c(=O)cc(C(F)(F)F)n(C)c1=O | 70
O=C(Nc1cc(Cl)ccc1N1C(=O)C2=C(CCCC2)C1=O)c1ccc2ccccc2c1 | 40
COc1c(Cl)cc(F)c(N2C(=O)C3=C(CCCC3)C2=O)c1N | 0
Cc1c(Cl)cc(F)c(-n2c(=O)cc(C(F)(F)F)n(C)c2=O)c1NC(=O)OCc1ccc(Cl)cc1Cl | 70
C#CCOc1c(Cl)cc(F)c(-n2nnn(CCCF)c2=O)c1N | 20

---

Test system: field corn (Zea mays L., var. Dekalb 535, CORN)
Test: Pre-emerge test, crop safety
Format: in vivo
Conditions: pre-emerge, 250 g ai/ha, 14 days after application, scale 0-100
Method: A standard greenhouse herbicide activity screening system was used to evaluate the herbicidal efficacy and crop safety of these test compounds. […] At 14 days after application of the test materials, phytotoxicity ratings were recorded. […]

compound | phytotoxicity rating CORN (crop damage)
COc1c(Cl)cc(F)c(-n2c(=O)cc(C(F)(F)F)n(C)c2=O)c1NC(=O)C=Cc1ccccc1F | 10
CCSCC(=O)Nc1c(OC)c(Cl)cc(F)c1-n1c(=O)cc(C(F)(F)F)n(C)c1=O | 10
Cn1c(C(F)(F)F)cc(=O)n(-c2ccccc2NC(=O)c2ccc3ccccc3c2)c1=O | 0
COc1c(Cl)cc(F)c(-n2c(=O)cc(C(F)(F)F)n(N)c2=O)c1NC(=O)c1ccc2ccccc2c1 | 30
COc1c(Cl)cc(F)c(-n2c(=O)cc(C(F)(F)F)n(C)c2=O)c1NC(=O)COc1ccc(F)cc1 | 80
COc1c(Cl)cc(F)c(-n2c(=O)cc(C(F)(F)F)n(C)c2=O)c1NC(=O)CCc1cc(C)ccc1C [2-132] | 15
COc1c(Br)cc(F)c(-n2c(=O)cc(C(F)(F)F)n(C)c2=O)c1N(C(=O)C=Cc1ccccc1)C(=O)C=Cc1ccccc1 [2-176] | 0
COc1c(Cl)cc(F)c(-n2c(=O)cc(C(F)(F)F)n(N)c2=O)c1NC(=O)COCc1ccccc1 | 90
COc1c(Cl)cc(F)c(-n2c(=O)cc(C(F)(F)F)n(C)c2=O)c1NC(=O)CSC(C)C | 20
CCOC(=O)CSCC(=O)Nc1c(OC)c(Cl)cc(F)c1-n1c(=O)cc(C(F)(F)F)n(C)c1=O | 15
